# target.or.system: UniProt:P23945
# test.protocol: CHO-FSH in vitro bioactivity (CRE-luciferase reporter)
# study.conditions: CHO cells transfected with human FSH receptor and luciferase reporter gene
pEC50: −log10 of the molar value.
readout.type: pEC50

| compound | pEC50 |
| --- | --- |
| COCCN(CCOC)CC(=O)Nc1cccc(-c2nc(-c3cccs3)nc3sc(C(=O)NC(C)(C)C)c(N)c23)c1 [Example 16] | 5.17 |
| CC(C)(C)NC(=O)c1sc2nc(-c3ccco3)nc(-c3cccc(NC(=O)CNC(C)(C)CO)c3)c2c1N [Example 12] | 5.53 |

[1] CCN(CCOC)CC(=O)Nc1cccc(-c2nc(OC)nc3sc(C(=O)NC(C)(C)C)c(N)c23)c1 [Example 22]
[2] CC(C)(C)NC(=O)c1sc2nc(-c3ccncc3)nc(-c3cccc(NC(=O)CNC(C)(C)CO)c3)c2c1N [Example 25]
Field: lower recorded pEC50 (choose 1 or 2 ) State your choice using its label.
1

* * *

# target.or.system: human FSH receptor (Homo sapiens, UniProt P23945)
# Sequence (P23945 18-695): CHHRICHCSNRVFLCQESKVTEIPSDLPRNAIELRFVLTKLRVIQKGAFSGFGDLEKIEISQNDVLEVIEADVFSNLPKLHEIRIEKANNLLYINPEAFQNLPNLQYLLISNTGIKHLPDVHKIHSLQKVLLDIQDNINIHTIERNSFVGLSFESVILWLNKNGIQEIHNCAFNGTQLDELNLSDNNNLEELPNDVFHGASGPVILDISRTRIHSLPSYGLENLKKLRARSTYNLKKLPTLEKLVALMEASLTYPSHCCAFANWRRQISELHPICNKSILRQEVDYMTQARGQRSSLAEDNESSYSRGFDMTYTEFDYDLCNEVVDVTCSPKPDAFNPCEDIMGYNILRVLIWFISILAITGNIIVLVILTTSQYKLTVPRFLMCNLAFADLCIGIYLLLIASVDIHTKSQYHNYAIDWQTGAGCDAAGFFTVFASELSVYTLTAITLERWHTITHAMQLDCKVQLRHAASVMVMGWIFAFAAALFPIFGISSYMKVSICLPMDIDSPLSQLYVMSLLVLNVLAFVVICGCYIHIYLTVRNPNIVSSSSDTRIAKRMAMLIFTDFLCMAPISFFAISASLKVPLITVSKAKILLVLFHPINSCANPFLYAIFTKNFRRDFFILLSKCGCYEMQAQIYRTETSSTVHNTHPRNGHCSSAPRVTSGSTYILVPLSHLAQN
# test.protocol: CHO-FSH in vitro bioactivity (CRE-luciferase reporter)
# study.conditions: CHO cells transfected with human FSH receptor and luciferase reporter gene
readout.type: EC50 (µM)

[I] CSc1nc(-c2cccc(NC(=O)CNC(C)(C)CO)c2)c2c(N)c(C(=O)NC(C)(C)C)sc2n1
[II] CN(CCO)CC(=O)Nc1cccc(-c2nc(-c3cccs3)nc3sc(C(=O)NC(C)(C)C)c(N)c23)c1
[III] CCN(CCOC)CC(=O)Nc1cccc(-c2nc(SC)nc3sc(C(=O)NC(C)(C)C)c(N)c23)c1
[IV] C=CCNc1nc(-c2cccc(NC(=O)CNCC(=O)OC)c2)c2c(N)c(C(=O)NC(C)(C)C)sc2n1
Sort low-to-high on EC50, please. Please respond by ranking the labels in the order requested.
III, IV, I, II
(III: 0.101 µM, IV: 0.56 µM, I: 0.806 µM, II: 1.44 µM)

[A] CSc1nc(-c2cccc(NC(=O)CNC(CO)CO)c2)c2c(N)c(C(=O)NC(C)(C)C)sc2n1
[B] CCN(CCOC)CC(=O)Nc1cccc(-c2nc(NC(C)C)nc3sc(C(=O)NC(C)(C)C)c(N)c23)c1
I'd appreciate it if you could identify which of A and B has the greater EC50. Your answer should be the label of the entry you select.
B
(B: 2.95 µM, A: 1 µM)

[A] COCCN(CCOC)CC(=O)Nc1cccc(-c2nc(SC)nc3sc(C(=O)NC(C)(C)C)c(N)c23)c1
[B] CCNc1nc(-c2cccc(NC(=O)CNCC(=O)OC)c2)c2c(N)c(C(=O)NC(C)(C)C)sc2n1
EC50 comparison. Which is larger, A or B ? Indicate your choice by writing its label.
B
(B: 2.3 µM, A: 1.18 µM)

* * *

# target.or.system: human FSH receptor (Homo sapiens, UniProt P23945)
# test.protocol: CHO-FSH in vitro bioactivity (CRE-luciferase reporter)
# study.conditions: CHO cells transfected with human FSH receptor and luciferase reporter gene
readout.type: EC50 (nM)

| compound | uom | EC50 |
| --- | --- | --- |
| COC(=O)CNCC(=O)Nc1cccc(-c2nc(SC)nc3sc(C(=O)NC(C)(C)C)c(N)c23)c1 [Example 3] | nM | 1440 |

[1] COCCN(CCOC)CC(=O)Nc1cccc(-c2nc(-c3ccncc3)nc3sc(C(=O)NC(C)(C)C)c(N)c23)c1 [Example 26]
[2] COC(=O)CNCC(=O)Nc1cccc(-c2nc(-c3cccs3)nc3sc(C(=O)NC(C)(C)C)c(N)c23)c1 [Example 15]
In the pair 1 and 2 , the larger recorded EC50 belongs to which? # reply format: chosen label
2
(2: 3210 nM, 1: 1230 nM)

This collection of values is drawn from patent US7375109B2.
